biological target: T1, His-tagged P3028 (human, also: His tag, length and end not given here); experiment: PEPSCAN ELISA, peptide on chip;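 note: binding detected by peroxidase ELISA with ABTS, OD405 colour imaged by CCD camera before and after staining, raw OD405 reported as rampo units, air-bubble wells scored 0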
T1 construct: in solution at 0.5 ug/mL, detected with mouse anti-His antibody and rabbit anti-mouse peroxidase (rampo); also called PGE73; His-tag-P3028; not shown: His tag
T1 peptide: VFDEFKPLVEEPQNLIK
Ends that are not written are not given here.
Observation type: RAMPO Score (rampo units)
Please give a number only; it is taken to be in rampo units.

Please give the documented RAMPO Score of KKLDTMFVKLSLFTER [SEQ ID NO 315]
467

Give a short answer stating reported RAMPO Score for KKLDTFFPKLSLFTER [SEQ ID NO 329] .
456

Provide RAMPO Score value for the following binder: DKLDTFFVKLSLFTER [SEQ ID NO 269]
373

Read the entry KKLDTFFVKVSLFTER [SEQ ID NO 343] and write its reported RAMPO Score.
658

Read off the recorded RAMPO Score for KKLDTFFVKASLFTER [SEQ ID NO 332]
426

Give the measured RAMPO Score for KKLDTFFVKMSLFTER [SEQ ID NO 336]
460

Fill in RAMPO Score for record KKLDTFFVKRSLFTER [SEQ ID NO 340]
439
